- Tested on: mobilized peripheral blood CD34+ cells
- method: CD34+ expansion assay
- Type: cell-based
- assay.setup: Homo sapiens; read-out: CD34 Frequency EC50
- Method: Approximately 3,000 mobilized peripheral blood CD34+ cells were plated per well in 384-well plate at a final volume of 45 μL in HSC growth media (SFEM supplemented with Pen/Strep, 50 ng/mL FLT3L, TPO, SCF and IL-6). Serial dilutions were made in HSC growth media with a top final concentration of 10 μM. 5 μL 10× stock was added to each well. The plate was gently tapped on all sides and incubated for 7 days at 37° C./5% CO2. […]
pEC50: −log10 of the molar value.
quantity.measured: pEC50

O=[N+]([O-])c1ccc(/C=N/Nc2nccc(-c3cccnc3)n2)cc1 : 5.30 to 6.00
Cc1ccc(Cc2c(C)nc(Nc3nc(C)c4ccc(C)cc4n3)[nH]c2=O)cc1 : 5.30 to 6.00
O=C(Nc1ccc(-c2nnc3n2CCCCC3)cc1)c1cccc2cccnc12 : 6.00 to 6.30
CCCc1cc(C(N)=O)c(NC(=O)COc2ccccc2C)s1 : > 6.30
Cc1cn2nc(NCCOc3ccc(F)cc3)sc2n1 : 6.00 to 6.30
N#Cc1cccc(C#N)c1N1CCN(C(=O)Nc2ccccc2)CC1 : ≤ 5.30

# map each compound to its pEC50
1. Clc1ccc(-c2nc(-c3cnccn3)no2)cc1
2. Cc1nn2cc(-c3ccc(-c4ccccc4)cc3)nc2s1
3. FC(F)(F)c1ccnc(N/N=C/c2ccc(Cl)cc2Cl)n1
4. CCC(=O)Nc1ccc(N2Cc3ccccc3C2=O)cc1
5. Cc1ccc2nc(-c3ccc(-c4ccccn4)s3)cn2c1

Result string:
["≤ 5.30", "6.00 to 6.30", "5.30 to 6.00", "5.30 to 6.00", "6.00 to 6.30"]
